system_under_test: active p38 alpha enzyme (Upstate Biotechnology) (Homo sapiens, UniProt Q16539)
Construct: purchased Upstate Biotechnology
Sequence (Q16539 whole entry): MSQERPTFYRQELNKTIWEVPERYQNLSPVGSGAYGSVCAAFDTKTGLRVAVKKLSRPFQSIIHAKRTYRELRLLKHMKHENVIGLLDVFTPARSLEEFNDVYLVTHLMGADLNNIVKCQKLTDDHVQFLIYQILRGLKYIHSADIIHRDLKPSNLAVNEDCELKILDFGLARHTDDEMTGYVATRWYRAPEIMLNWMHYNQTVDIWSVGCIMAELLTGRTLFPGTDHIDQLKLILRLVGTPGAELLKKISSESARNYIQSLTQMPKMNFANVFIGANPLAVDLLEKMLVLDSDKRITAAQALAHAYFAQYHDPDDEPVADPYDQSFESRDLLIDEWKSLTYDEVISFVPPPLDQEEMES
protocol_notes: p38α biochemical assay (ATP turnover, luminescent detection, Cambrex PKlight)
condition_info: p38α kinase; Table 1 Biological Activity
Kindly supply the reported IC50 values for the records listed here.

Examples from the recorded data:
{"compound": "CC(C)NC(=O)c1csc(-c2c(-c3ccc(F)cc3)n[nH]c2C2CCN(C(=O)/C=C/c3ccccc3C(F)(F)F)CC2)n1", "assay_value": "> 1 µM"}
{"compound": "Cc1ccc(S(=O)(=O)NCCNC(=O)c2csc(-c3c(-c4ccc(F)cc4)n[nH]c3C3CCNCC3)n2)cc1", "assay_value": "> 1 µM"}
{"compound": "Cc1nc(-c2ccc(F)cc2)c(-c2nc(C(=O)NCC#N)cs2)s1", "assay_value": "≤ 1 µM"}
{"compound": "O=C(NCC(F)(F)F)c1csc(-c2c(-c3ccc(F)cc3)ncn2C2CCNCC2)n1", "assay_value": "≤ 1 µM"}
{"compound": "CC(C)NC(=O)c1csc(-c2c(-c3ccc(F)cc3)n[nH]c2C2CCN(C(=O)c3ccc(N(C)C=O)cc3)CC2)n1", "assay_value": "> 1 µM"}
{"compound": "CC1CC(C)CN(Cc2onc(-c3ccc(F)cc3)c2-c2nc(C(=O)NC(C)C)cs2)C1 (stereo not shown)", "assay_value": "> 1 µM"}
{"compound": "CC(C)NC(=O)c1csc(-c2c(-c3ccc(F)cc3)n[nH]c2C2CCN(C(=O)c3cccnc3)CC2)n1", "assay_value": "≤ 1 µM"}
{"compound": "CCOc1ccc(OCC)c(NC(=O)c2csc(-c3sc(C)nc3-c3ccc(F)cc3)n2)c1", "assay_value": "> 1 µM"}

Provide reported IC50 for each item, in the same order as listed.
1. CC(C)NC(=O)c1csc(-c2c(-c3ccc(F)cc3)n[nH]c2C2CCN(C(=O)Cc3cccc(O)c3)CC2)n1
2. C#CCNC(=O)c1csc(-c2c(-c3ccc(F)cc3)n[nH]c2C2CCNCC2)n1
3. CC(C)NC(=O)c1csc(-c2oc(CNCc3cccs3)nc2-c2ccc(F)cc2)n1
4. CC(C)NC(=O)c1csc(-c2c(-c3ccc(F)cc3)n[nH]c2C2CCN(C(=O)c3ccc(Cl)cc3O)CC2)n1
5. CC(C)NC(=O)c1csc(-c2oc(CNc3c(C(C)C)cccc3C(C)C)nc2-c2ccc(F)cc2)n1

RESULT:
["> 1 µM", "≤ 1 µM", "> 1 µM", "> 1 µM", "> 1 µM"]
